The reported numbers originate from paper PMC2854023.

- EXPERIMENTAL TARGET: PDE7A (Homo sapiens, UniProt Q13946)
- Sequence (Q13946 whole entry, species assumed): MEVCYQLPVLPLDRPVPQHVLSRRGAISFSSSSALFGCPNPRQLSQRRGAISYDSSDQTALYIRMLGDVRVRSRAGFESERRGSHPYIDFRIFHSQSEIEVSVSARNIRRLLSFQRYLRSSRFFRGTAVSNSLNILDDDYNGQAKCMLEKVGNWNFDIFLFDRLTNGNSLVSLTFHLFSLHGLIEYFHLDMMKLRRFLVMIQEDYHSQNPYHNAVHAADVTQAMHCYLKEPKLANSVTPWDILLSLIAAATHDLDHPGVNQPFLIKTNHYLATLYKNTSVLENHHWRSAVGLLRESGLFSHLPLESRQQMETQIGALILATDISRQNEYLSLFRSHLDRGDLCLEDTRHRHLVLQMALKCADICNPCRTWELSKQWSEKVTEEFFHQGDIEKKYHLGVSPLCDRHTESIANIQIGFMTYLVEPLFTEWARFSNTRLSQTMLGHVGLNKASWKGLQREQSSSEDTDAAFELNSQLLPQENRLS
- TEST PROTOCOL: In vitro PDE enzyme assay
- Type: biochemical
ENDPOINT NAME: IC50
Provide the measurement as a number trailed by its unit.

Requested field: IC50. Item: N#Cc1sc2sc(C#N)c(-c3ccco3)c2c1N 1100 nM

----------
- EXPERIMENTAL TARGET: PDE7A (Homo sapiens)
- TEST PROTOCOL: In vitro PDE enzyme assay
- Format: biochemical
- CONDITION LABEL: read-out: IC50 against PDE7A; in vitro enzyme assay
pIC50: −log10 of the molar value.
ENDPOINT NAME: pIC50

Requested field: pIC50. Item: Cc1ccc([N+](=O)[O-])cc1S(=O)(=O)N(C)C [BRL50481, reference compound] ~6.82
